# test_target: human ATGL (Homo sapiens)
# Construct: host or cells: Expi293 cells, crude lysate
# procedure_text: TAG hydrolase assay, lysates of Expi293 cells overexpressing ATGL, purified CGI-58, radiolabeled triolein
# Type: biochemical
# reported_conditions: nonlinear regression (GraphPad Prism), NG-497 0.5 μM, Figure 2c
pKi: −log10 of the molar value.
quantity: pKi

>>> value_reported("CCOc1ccc(-c2cc(OC)cc(C(=O)OC(C)C)n2)cc1 [NG-497]")
6.31

###

# test_target: human ATGL (aa 1–288) (Homo sapiens, UniProt Q96AD5)
# Construct: human ATGL (aa 1–288); host or cells: Expi293 cells, crude lysate
# Sequence (Q96AD5 1-288): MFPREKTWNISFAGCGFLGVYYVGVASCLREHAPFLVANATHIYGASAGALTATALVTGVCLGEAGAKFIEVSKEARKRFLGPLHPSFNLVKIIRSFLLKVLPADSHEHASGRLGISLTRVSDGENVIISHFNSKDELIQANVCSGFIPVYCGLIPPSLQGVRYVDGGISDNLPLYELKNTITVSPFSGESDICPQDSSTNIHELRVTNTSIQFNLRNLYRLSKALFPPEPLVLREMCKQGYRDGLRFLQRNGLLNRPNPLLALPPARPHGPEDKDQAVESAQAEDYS
# procedure_text: TAG hydrolase assay, wild-type and chimeric ATGL variants in Expi293 lysates
# Format: biochemical
# reported_conditions: read-out: IC50
quantity: IC50 (µM)

>>> value_reported("CCOc1ccc(-c2cc(OC)cc(C(=O)OC(C)C)n2)cc1")
1.3

###

# test_target: human ATGL (Homo sapiens, UniProt Q96AD5)
# Sequence (Q96AD5 whole entry): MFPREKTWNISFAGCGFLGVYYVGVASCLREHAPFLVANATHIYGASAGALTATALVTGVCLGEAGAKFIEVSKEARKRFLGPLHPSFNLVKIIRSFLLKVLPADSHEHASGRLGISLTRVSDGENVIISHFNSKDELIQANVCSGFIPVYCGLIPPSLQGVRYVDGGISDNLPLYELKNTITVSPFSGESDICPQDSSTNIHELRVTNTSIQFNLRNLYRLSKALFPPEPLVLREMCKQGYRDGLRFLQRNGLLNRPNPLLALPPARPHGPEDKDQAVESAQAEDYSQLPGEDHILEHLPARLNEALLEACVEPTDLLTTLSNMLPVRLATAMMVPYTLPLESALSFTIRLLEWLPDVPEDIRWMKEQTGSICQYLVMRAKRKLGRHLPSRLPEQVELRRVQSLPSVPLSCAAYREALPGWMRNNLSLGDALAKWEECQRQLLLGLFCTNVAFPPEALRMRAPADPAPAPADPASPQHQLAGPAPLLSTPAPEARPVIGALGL
# procedure_text: TAG hydrolase assay, lysates of Expi293 cells overexpressing ATGL, purified CGI-58, radiolabeled triolein
# reported_conditions: inhibition of TAG hydrolase activity of human ATGL, Expi293 lysates, purified CGI-58, radiolabeled triolein
# From the text: We previously developed Atglistatin (Ai), a selective inhibitor of mouse ATGL,[31],[32] which is ineffective against human ATGL.[17] Ai acts as a competitive inhibitor targeting the minimal active domain of ATGL ranging from aa 1–254.[33] […] We therefore determined ATGL activity in the presence and absence of mouse CGI-58, mouse G0S2, and Ai. […]
quantity: IC50 (µM)

>>> value_reported("CCOc1ccc(-c2cc(C)cc(C(=O)OC(C)C)n2)cc1 [compound 4]")
1.6
>>> value_reported("CCOc1ccc(-c2cc(OC)cc(C(=O)OC(C)C)n2)cc1 [NG-497]")
1
>>> value_reported("CCOc1ccc(-c2cccc(C(=O)OC(C)C)n2)cc1 [compound 3]")
1.8
>>> value_reported("CCOC(=O)c1cccc(-c2ccc(OCC)cc2)n1 [compound 2]")
3
>>> value_reported("CCOC(=O)c1cccc(-c2ccc(OCC)cc2)c1 [compound 1]")
35

###

# test_target: mouse ATGL I69F/T146G double mutant (Mus musculus, UniProt Q8BJ56, I69F/T146G)
# Sequence (Q8BJ56 whole entry I69F/T146G): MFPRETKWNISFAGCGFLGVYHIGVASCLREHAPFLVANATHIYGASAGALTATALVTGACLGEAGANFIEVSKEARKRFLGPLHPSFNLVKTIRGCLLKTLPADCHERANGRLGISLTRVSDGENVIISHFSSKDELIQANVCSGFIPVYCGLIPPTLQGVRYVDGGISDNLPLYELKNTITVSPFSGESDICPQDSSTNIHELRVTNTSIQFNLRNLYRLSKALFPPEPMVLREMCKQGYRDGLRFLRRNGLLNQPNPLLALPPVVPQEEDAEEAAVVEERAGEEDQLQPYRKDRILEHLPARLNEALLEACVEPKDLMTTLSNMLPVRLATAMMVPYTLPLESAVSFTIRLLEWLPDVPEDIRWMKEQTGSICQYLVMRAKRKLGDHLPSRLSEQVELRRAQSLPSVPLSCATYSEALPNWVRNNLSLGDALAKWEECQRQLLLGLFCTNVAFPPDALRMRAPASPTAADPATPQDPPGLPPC
# procedure_text: TAG hydrolase assay, humanized mouse ATGL variants
# reported_conditions: I69F/T146G double mutant of mouse ATGL
pIC50: −log10 of the molar value.
quantity: pIC50

>>> value_reported("CCOc1ccc(-c2cc(OC)cc(C(=O)OC(C)C)n2)cc1 [NG-497]")
5.05
